tested on: K4 kissing-loop RNA reporter; assay: apparent KD of K4 kissing-loop reporter; higher = weaker reporter binding; conditions: Eterna round: R107; input ligand: none
Endpoint label: apparent KD of K4 kissing-loop reporter (nM)
All answers are understood in nM, so give the number only.

{"Sequence chain": "UCGUCUGUGUGAGGAUAUCCAAGCGAGCUGCGUAAAGGCGCGGCGUUUGGAGUGAUGUUCCAGGCAGGAGAAGGCGCACGGGCUU [Maleisar]", "Unit spec": "nM", "Value reported": 245}
{"Sequence chain": "AGGAUGUAGUGAUGUUAUAUAAGAAGUAGACGAGGACCGGUACGGCCGCCACUCGAAACGGCUACUAGCGCGUUGCGAGGUGUGC [ExTryptoA.Cg]", "Unit spec": "nM", "Value reported": 476}
{"Sequence chain": "AGGUCCGAGCCUGUAAAGGCUCGGACCUGUUAGGAUAUGACGUUAUUCAGAAGGGAUGGGUGGAGUGAUGUUCCACCCGCAAGGG [#2 Same State - FMN A Attempt #5 (HarryS)]", "Unit spec": "nM", "Value reported": 111}
{"Sequence chain": "AAUCAAUACAGAAGGAGCGUGACAAUUACUAUUGAAUUAGGAGCUAGUGAUGUUAGCAUAACACAGGUAGGUCGCUGUACAUUUA [JR_SSArginiB_Sub012]", "Unit spec": "nM", "Value reported": 163}
{"Sequence chain": "AAGGUCACUACUACAGUGAUGUUGUAGGAGCAGGAUAUGCAGAAAUGCAGAAGGGCUCGCUCCAGGUGACCGAAUGAAACAUUCA [Omei KL FMN A SS A v3]", "Unit spec": "nM", "Value reported": 573}

Consider the record given below.
Ask: Can you share its apparent KD of K4 kissing-loop reporter? I mean this sequence: AGGGUUUAGGACGAUACCAGCCUGGAGGCCAGUGAUGUUGGCCGAUUUGAACAGAAUUAAGGCCCUUGGCAGCGUAUCUAAAACC [Esamaza]
Result: 320

* * *

test system: K4 kissing-loop RNA reporter; assay: apparent KD of K4 kissing-loop reporter; higher = weaker reporter binding; settings: Eterna round: R107; input ligand: tryptophan 2.4 mM;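 note: bound reporter read as fluorescence of individual clusters on recovered sequencing chips by microscopy, with normalized cluster intensities fitted with a binding model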
Attribute: apparent KD of K4 kissing-loop reporter
All answers are understood in nM, so give the number only.

Solved entries (count: 5):
{"Sequence chain": "CCGGGCGGCCGAAGGAGCGGGCGGACCCGAGUGAUGUUCGGGUGGACCGUGAGGUCCGGUGCCCAGGUAGGUCGCGGUUCCGCCC [#2 Same State - Arginine B Attempt #5 (HarryS)]", "Unit spec": "nM", "Value reported": 120}
{"Sequence chain": "AAAUUCUUUUUUUUAUUUAACUUUUCAGAAGGAGCGUGGUAGUUCACAGGUAGGUCGCUGAAUUUUGGACUAGUGAUGUUAGUUA [JR_SSArginiA_Sub006]", "Unit spec": "nM", "Value reported": 158}
{"Sequence chain": "GGUAUCCAGUACCAUUGCGUUAAAACAGAAGGAGCGAGUAUGGACUCAGGUAGGUCGCUGUUUAUAGUCGAGUGAUGUUCGAAUC [Same State Arginine A GF 15]", "Unit spec": "nM", "Value reported": 222}
{"Sequence chain": "CCCUCACGAGUGAUGUUCGUAGGGUACAGUCAGGAUAUCAUGCGGUUGAGAAGGGACAGAAAGGGCGGCCACGGGUUGCUCAUUU [Issogeso]", "Unit spec": "nM", "Value reported": 530}
{"Sequence chain": "GUGUGUGUCGGAGGAUAUGCGGUGGGUGUGGGCGGAUUAGUGAUGUUGGUUGUGGUGGUGGUGGGUGUAGAAGGUUGGUGUGUGU [RHig 3/7 C]", "Unit spec": "nM", "Value reported": 444}

Consider the record given below.
Ask: Can you share its apparent KD of K4 kissing-loop reporter? I mean this sequence: UGACUGGACUGAAGGAGCGAGGACGGUCAUAGACCGAAUUCAGUGAUGUUGAAAAUAAAACCUCAGGUAGGUCGCAGUCUAGUCU [ArgBS 3 #SwitchBubble #StaticStem]
Result: 204

* * *

Attribute: apparent KD of MS2 coat protein
tested on: MS2 coat protein; experiment: apparent KD of MS2 coat protein; designed switch direction (-1 OFF switch, 1 ON switch): -1; higher = weaker reporter binding; settings: Eterna round: R95; input ligand: FMN 200 uM
All answers are understood in nM, so give the number only.

Ask: Can you share its apparent KD of MS2 coat protein? I mean this sequence: CAUACUCAAGUCAGGAUAUACAGUCGAAUACGGGUGUAGAAGGGACAUGAGGAUCACCCAUGUAGAGAGUAAAG [EX-4 Malc #22] (puzzle: Brourd's mod of Exclusion 4)
Result: 122

Ask: Can you share its apparent KD of MS2 coat protein? I mean this sequence: UAUUAUCAAGUAAGAUCCUACAUGAGGAUCACCCAUGUGCUCGUCUUAUAAGGUACUGUGACGAAAGUCACGGUACC [Sensor 3, v1 - 74] (puzzle: Sensor v3, turn-off variant 1)
Result: 31.3

Ask: Can you share its apparent KD of MS2 coat protein? I mean this sequence: AGUACUAUCACGAAAGUGAUAGUACAAAAAGCAAGUGAAACAUGAGGAUCACCCAUGUCCUCAUUUGCUCGUCUUAU [Identical to 94% Sensor v2, turnoff variant 2] (puzzle: Sensor v3, turn-off variant 2)
Result: 16.8

Ask: Can you share its apparent KD of MS2 coat protein? I mean this sequence: GGAUCGAGUGUGAGGAUAUGCUGGUCCUUGGAUCAGCAGAAGGCACAUGAGGAUCACCCAUGUGGAGACGGUCC [JL bmx4 3.17] (puzzle: Brourd's mod of Exclusion 4)
Result: 298

Ask: Can you share its apparent KD of MS2 coat protein? I mean this sequence: AUAUGCAAGUAAAGAUCCUACAUGAGGAUCACCCAUGUGCUCGUCUUAUAAAGUACUAUCACGAAAGUGAUAGUACA [Mat - Sensor v3 - turn-off var 1 - Eli Mod - D84] (puzzle: Sensor v3, turn-off variant 1)
Result: 215

* * *

system: MS2 coat protein; test: apparent KD of MS2 coat protein; higher = weaker reporter binding; details: Eterna round: R107; input ligand: tryptophan 2.4 mM
Attribute: apparent KD of MS2 coat protein

{"Sequence chain": "CUCCUGGGAGCGGCCGCCACUGGAGGCCUUGCGCGACAUGAGGAUCACCCAUGUUGGCCCGGCCUCAGGACCGGGUUCGCGCGAG [Same State - Tryptophan B Attempt #2]", "Value reported": "10.1 nM"}
{"Sequence chain": "AGCCCGGGAGCGGCCGCCACUGGAGGCUUUGCGCGACAUGAGGAUCACCCAUGUGUGCCCGGCGUUAGGACCGGGCUCGCGUGGU [#1 Same State - Tryptophan B Attempt #21 (HarryS)]", "Value reported": "46.9 nM"}
{"Sequence chain": "ACACAUGAGGAUCACCCAUGUCCAAUAGAUACCAGUGAUACGGUGCACCCUUGGCAGCUGUUACUGAGUGAUGGUUCCCUCGGAA [Same State Theophylline A GF3]", "Value reported": "58.7 nM"}
{"Sequence chain": "ACGAACGAUAGUGAUACCAGACGUACAUGAGGAUCACCCAUGUUGUAAACAUGGUUAAUAGUCCCUUGGCAGCACGAUAAGUUCG [JR_ExcTheophyB_Sub003]", "Value reported": "802 nM"}
{"Sequence chain": "UCGUGUAUAUCGGAUACCAGUGAAAUCGAUACAUGAGGAUCACCCAUGUGAGAGGAUGUACACCCUUGGCAGCUGUAUAUAUCUA", "Value reported": "25.1 nM"}
{"Sequence chain": "UGACAUUGCUCAGAUACCAGACACGAGGAUCACCCGUGUGCCAACAAGUACAAAAUAAAUGUCCCUUGGCAGCUGAGCAAUGUCU [TheoBX 24 #MS2Left #AlternativeMS2 #Theo22]", "Value reported": "12.2 nM"}
{"Sequence chain": "GAGACGUCGGGAAGGAGCGCAUCAAAACCACACAUGAGGAUCACCCAUGUAUAAAUAUGCAUGCAGGUAGGUCGCCCGGUGUCCA [SS-ArgB16]", "Value reported": "29.1 nM"}
{"Sequence chain": "AAACAUGAGGAUCACCCAUGUAAAGUUGAAGGAGCGACCAGAGGGUCAGGUAGGUCGCAACACAUGAGGAUCACCCAUGUAUCGA [DOUBLE!!! :-D #5]", "Value reported": "72.7 nM"}
{"Sequence chain": "GGUGGCUGGACUGAUACCAGCCACCACCGAUAGACCACAUGAGGAUCACCCAUGUUGGGUGGCCCUUGGCAGCAGUCUAGCUGCC [#1 Same State - Theophylline B Attempt #11 (HarryS)]", "Value reported": "441 nM"}
{"Sequence chain": "UGUAACAUGAGGAUCACCCAUGUGCACGAUACCAGCUUAUUGGUAGGCCCUUGGCAGCGUAUUCGGAAGAUGUAUAAUAUAUAUC [#26 SameState-TheophyllineA]", "Value reported": "12.1 nM"}

Consider the record given below.
Ask: Can you share its apparent KD of MS2 coat protein? I mean this sequence: GCCUCAUGUAGAAGGAGCGUCAGAAGCUACAGACAUGAGGAUCACCCAUGUUAGUUGAUCUGACAGGUAGGUCGCUACAGCAGGA [Arg B SS t7]
Result: 34.9 nM
